These entries and their values trace back to the supplement of paper PMC11208160.

experiment: recombinant UMI read abundance after kanamycin selection (control-corrected) (log10(CPM+1)); higher = more efficient recombination; extreme values may be limits of the assay; sequences stand for … in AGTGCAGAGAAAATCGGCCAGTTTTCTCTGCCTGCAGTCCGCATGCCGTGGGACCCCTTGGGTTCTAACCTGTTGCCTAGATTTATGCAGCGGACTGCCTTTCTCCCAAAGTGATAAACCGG…AGGTTGGTTTCACT; site = the 11-nt donor
measurement.label: recombinant UMI read abundance (log10)

• CTTCTCCCATGGACCGGTTTTCCCGGTAATCCGTATTTGTA (site CTTCTCCCTTA) = 0.487
• AGCTTCCCATGGACCGGTTTTCCCGGTAATCCGTATTTGGG (site AGCTTCCCTCC) = 0.0229
• ATGTAGGCATGGACCGGTTTTCCCGGTAATCCGTATTTGGC (site ATTTAGGCTGC) = 0.516
• TGAAAGGCATGGACCGGTTTTCCCGGTAATCCGTATTTGCT (site AGAAAGGCTAG) = 0.855
• CGCTGGCCATGGACCGGTTTTCCCGGTAATCCGTATTTGCT (site CGCTGGCCTAG) = 0.278
• CCTATACCATGGACCGGTTTTCCCGGTAATCCGTATTTGCG (site CCTATACCTCG) = 0.0152
• ACCAACCCATGGACCGGTTTTCCCGGTAATCCGTATTTGCG (site ACCAACCCTCG) = 0
• TAGGAATCATGGACCGGTTTTCCCGGTAATCCGTATTTGCG (site CAGGAATCTCG) = 2.3
• TGGACACCATGGACCGGTTTTCCCGGTAATCCGTATTTGAC (site TGTACACCTGT) = 0

###

assay: recombinant barcode read abundance after kanamycin selection (control-corrected) (log10(CPM+1)); higher = more efficient recombination; sequences stand for … in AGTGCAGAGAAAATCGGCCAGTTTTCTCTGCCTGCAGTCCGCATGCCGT…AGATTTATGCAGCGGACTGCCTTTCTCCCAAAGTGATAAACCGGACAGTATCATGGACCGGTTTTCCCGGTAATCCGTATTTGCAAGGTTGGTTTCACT; site = the 11-nt target
measurement.label: recombinant barcode read abundance (log10)

• GCCCGATCTTGGGTTCTAACCTGTTGCCT (site GCCCTATCTAG) = 0.0709
• GGTCGGGCTTGGGTTCTAACCTGTTGCCT (site GGTCGTGCTAG) = 0.0723
• ACGAAGACTTGGGTTCTAACCTGTTGCCG (site ACGAAGACTCG) = 1.08
• GTACCGCCTTGGGTTCTAACCTGTTGCCT (site GTACCGCCTAG) = 1.01
• CTCGACACTTGGGTTCTAACCTGTTGCCT (site CTCGACACTAG) = 1.82
• AGCAGAGCTTGGGTTCTAACCTGTTGCCG (site AGCAGAGCTCT) = 0.465
• CGCTGACCTTGGGTTCTAACCTGTTGCTT (site CGCTGCCCTAA) = 0.208
• GGTCGACCTTGGGTTCTAACCTGTTGCCT (site TGTCGACCTAG) = 0.175
• ATGAAGACTTGGGTTCTAACCTGTTGCCT (site ATCAAGACTAG) = 1.07
• ACGACTACTTGGGTTCTAACCTGTTGCCG (site ACGACTACTCG) = 0.618
• CGTCTACCTTGGGTTCTAACCTGTTGCTT (site CGTCTACCTAA) = 0.242
• GGGGACCCTTGGGTTCTAACCTGTTGCGC (site GGGGACCCTGC) = 3.3
• GAATCCTCTTGGGTTCTAACCTGTTGCCT (site AAATCCTCTAG) = 0.145
• GTGTATTCTTGGGTTCTAACCTGTTGCCT (site ACTGTCACTCC) = 0.0809
• TAGTGTTCTTGGGTTCTAACCTGTTGCCT (site TAGTGTTCTAG) = 0.57
• CTGGGCCCTTGGGTTCTAACCTGTTGCCT (site CTGGGCCCTAG) = 0.277
• AGCTCCTCTTGGGTTCTAACCTGTTGCCT (site TGCTCCTCTAG) = 0.0453
• GGTCGCCCTTGGGTTCTAACCTGTTGCGT (site TCGTAGACTTA) = 0.0116
• GAGTTTCCTTGGGTTCTAACCTGTTGCGT (site GAGTTCCCTAC) = 0.278
• TTAACTACTTGGGTTCTAACCTGTTGCTT (site TTAACTACTTA) = 0.0225
• ACTTCGACTTGGGTTCTAACCTGTTGCCT (site ACTTCGACTAG) = 0.116
